Below are pIC50 values recorded for PIK3CA (human) (UniProt P42336).
pIC50: −log10 of the molar value.

> print(dat)
                                   compound  reported
1  COc1c(OCC2CN(C)CCO2)ccc2c1N=C(NC(=O)c1cccnc1)N1CCN=C21 (centres undefined)    > 8.00

What pIC50 appears in the records for this compound with PIK3CA (human) (UniProt P42336)? COCCN1CCOC(CCCOc2ccc3c(c2OC)N=C(NC(=O)c2cccnc2)N2CCN=C32)C1 (centres undefined)
Sequence (P42336 whole entry, looked up): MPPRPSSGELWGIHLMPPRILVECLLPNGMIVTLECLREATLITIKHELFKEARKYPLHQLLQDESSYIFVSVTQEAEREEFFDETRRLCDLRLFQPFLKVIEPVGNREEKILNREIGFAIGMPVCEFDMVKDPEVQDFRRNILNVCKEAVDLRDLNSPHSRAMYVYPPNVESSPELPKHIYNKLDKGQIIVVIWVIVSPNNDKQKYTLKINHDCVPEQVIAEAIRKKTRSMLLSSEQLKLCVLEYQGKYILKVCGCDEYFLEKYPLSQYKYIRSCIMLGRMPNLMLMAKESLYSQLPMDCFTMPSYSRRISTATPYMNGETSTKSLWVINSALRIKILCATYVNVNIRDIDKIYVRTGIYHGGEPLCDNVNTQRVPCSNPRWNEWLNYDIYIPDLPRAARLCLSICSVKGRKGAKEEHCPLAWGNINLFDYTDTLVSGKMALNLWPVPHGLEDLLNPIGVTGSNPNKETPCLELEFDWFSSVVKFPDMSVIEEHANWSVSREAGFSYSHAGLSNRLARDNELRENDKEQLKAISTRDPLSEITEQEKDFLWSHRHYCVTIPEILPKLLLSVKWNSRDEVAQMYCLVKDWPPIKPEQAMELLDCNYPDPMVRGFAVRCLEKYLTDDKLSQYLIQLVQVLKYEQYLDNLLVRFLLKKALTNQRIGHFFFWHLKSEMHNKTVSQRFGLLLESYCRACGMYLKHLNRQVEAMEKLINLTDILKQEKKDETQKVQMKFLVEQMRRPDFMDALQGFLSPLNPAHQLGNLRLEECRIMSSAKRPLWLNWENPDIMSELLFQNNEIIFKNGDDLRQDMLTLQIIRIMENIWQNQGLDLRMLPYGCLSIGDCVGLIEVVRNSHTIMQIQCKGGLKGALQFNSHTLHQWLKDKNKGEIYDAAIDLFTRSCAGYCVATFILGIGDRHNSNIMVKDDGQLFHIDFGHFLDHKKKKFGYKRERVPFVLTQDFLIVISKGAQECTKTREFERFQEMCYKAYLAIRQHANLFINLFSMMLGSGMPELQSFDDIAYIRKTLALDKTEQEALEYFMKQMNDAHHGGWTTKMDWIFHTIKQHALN
> 8.00

What pIC50 appears in the records for this compound with PIK3CA (human) (UniProt P42336)? COc1c(OCCCN2C[C@@H](C)O[C@@H](C)C2)ccc2c1N=C(NC(=O)c1cncnc1)N1CCN=C21
> 8.00

What pIC50 appears in the records for this compound with PIK3CA (human) (UniProt P42336)? COc1c(OCC2CNCCO2)ccc2c1N=C(NC(=O)c1cccnc1)N1CCN=C21 (centres undefined)
> 8.00

What pIC50 appears in the records for this compound with PIK3CA (human) (UniProt P42336)? COc1c(OCCN(C)C)ccc2c1N=C(NC(=O)c1cccnc1)N1CCN=C21
> 8.00

What pIC50 appears in the records for this compound with PIK3CA (human) (UniProt P42336)? COc1c(OCCCN2CCOCC2)ccc2c1N=C(NC(=O)c1cnc(N)nc1C)N1CCN=C21
> 8.00

What pIC50 appears in the records for this compound with PIK3CA (human) (UniProt P42336)? COc1c(OCCCN2CCOCC2)ccc2c1N=C(NC(=O)c1ccc(NC(=O)NC(C)C)nc1)N1CCN=C21
> 8.00

What pIC50 appears in the records for this compound with PIK3CA (human) (UniProt P42336)? COc1c(OCCCN2CCOCC2)ccc2c1N=C(NC(=O)c1cncn1C)N1CCN=C21
> 8.00

What pIC50 appears in the records for this compound with PIK3CA (human) (UniProt P42336)? COc1c(OCCCN2CCOCC2)ccc2c1N=C(NC(=O)c1cnc(N)c(Br)c1)N1CCN=C21
> 8.00
